Tested on: VIM-2 metallo-beta-lactamase (Pseudomonas aeruginosa)
Assay: VIM-2 metallo-beta-lactamase inhibitors, primary screen, biochemical, epi-absorbance readout, Pseudomonas aeruginosa enzyme (AID 1527);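 further: red hydrolysis product quenches plate fluorescence so inhibitors raise well fluorescence; 0% = enzyme with DMSO and 100% = DMSO without enzyme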
Details: purified VIM-2, nitrocefin hydrolysis, epi-absorbance fluorescence; at 5.6 µM; active compounds read high
Out of some 290,000 compounds screened, about 2,600 (0.9%) were called active. Many of the other results were omitted from the sample, so actives are more common in it than they were.
Some compounds, each annotated with its measured inhibition.
Answer with a number only, understood to be in %.

Known inhibition results, listed for orientation:
O=C(N/N=C/c1c(O)n(C2CC2)c(=S)[nH]c1=O)c1ccccc1Cl: -1.56
CNC(=O)O/N=C(\N)Cc1csc2ccc(Cl)cc12: -0.28
COC(=O)COc1cc(C)cc2oc(=O)c3c(c12)CCCC3: 8.38
Cc1cc(=O)oc2c(C)c(OCC(=O)N3CCN(Cc4ccc5c(c4)OCO5)CC3)ccc12: 41.5
O=C(Cc1ccccc1[N+](=O)[O-])N1CCN(Cc2ccc3c(c2)OCO3)CC1: 1.82
CN(C)CC1CCCCC1OC(=O)c1ccc(Cl)c(Cl)c1 (stereo not given): 0.42

Short answer for Cc1cc2ccccn2c1C(C[N+](=O)[O-])c1c(F)cccc1Cl (stereo not given) : inhibition was 0.92

The measured inhibition associated with CC(=O)c1c(C)n(C(C)C)c2ccc(O)cc12 reads -2.19

Entry CCOC(=O)C1(CCc2ccccc2)CCN(Cc2ccco2)CC1 , inhibition reported as -1.92

For this compound ( COc1cc2nc(N3CCN(C(=O)[C@@H]4CCCO4)CC3)nc(N)c2cc1OC ), measured inhibition is -2.29
